FYI, the data here is from patent US12281080B2.

ASSAY METHOD TEXT: Serum and tumor PK in mice bearing 22rv1 xenograft tumors
Type: in vivo
COND: mouse, tumor tissue (relative to serum), ip, i.p. 20 mg/kg, male NcrNU mice, read-out: Amount in tumor tissue relative to blood
Protocol: To evaluate the PK of Senexin C in tumor tissues, Senexin C dissolved in 5% Dextrose was administered i.p. to male NcrNU mice bearing 22rv1 xenograft tumors (300˜500 mm^3) at 20 mg/kg. Both blood and tumor samples were collected at three different time points (3 mice per time point) after administration and Senexin C concentration in the serum and tumor tissue was measured by LC/MS/MS.
ATTRIBUTE MEASURED: Kp

Quick one: Kp for CN1CCN(C(=O)c2ccc3cc(CCNc4ccnc5ccc(C#N)cc45)ccc3c2)CC1 ? 5 to 10

====

ASSAY METHOD TEXT: Mouse pharmacokinetics, intraperitoneal, serum
Assay type: in vivo, mice
COND: mouse, serum, ip; i.p. 19 mg/kg, female FVB mice; read-out: AUC
ATTRIBUTE MEASURED: AUC
A complete answer gives the number and then names the unit.

Returns the measured AUC for the input molecule. Input: CN1CCN(C(=O)c2ccc3cc(CCNc4ccnc5ccc(C#N)cc45)ccc3c2)CC1 1570 ng·h/mL

====

Test system: CXCL1
ASSAY METHOD TEXT: QPCR gene expression in TNFα-treated HEK293 cells
Format: cell-based, human
COND: Homo sapiens, HEK293; range stated for all three genes
Text: Two types of cell-based assays for CDK8/19 inhibition were used to test the efficacy of quinoline quinolone compounds described herein (FIG. 3A). […]
ATTRIBUTE MEASURED: IC50

Which IC50 is reported for this compound? CN1CCN(C(=O)c2ccc3cc(CCNc4ccnc5ccc(C#N)cc45)ccc3c2)CC1 0.025 to 0.035 µM

====

ASSAY METHOD TEXT: Mouse pharmacokinetics, intraperitoneal, serum
Format: in vivo, mice
COND: mouse, serum, ip; i.p. 19 mg/kg, female FVB mice; read-out: Cmax
ATTRIBUTE MEASURED: Cmax (ng/mL)
Give bare numbers, in ng/mL.

So what's the measured Cmax for this one? CN1CCN(C(=O)c2ccc3cc(CCNc4ccnc5ccc(C#N)cc45)ccc3c2)CC1 [compound 6148] 1160

====

STUDY TARGET: MAP4K2 (Homo sapiens (Human))
Sequence (Q12851 whole entry): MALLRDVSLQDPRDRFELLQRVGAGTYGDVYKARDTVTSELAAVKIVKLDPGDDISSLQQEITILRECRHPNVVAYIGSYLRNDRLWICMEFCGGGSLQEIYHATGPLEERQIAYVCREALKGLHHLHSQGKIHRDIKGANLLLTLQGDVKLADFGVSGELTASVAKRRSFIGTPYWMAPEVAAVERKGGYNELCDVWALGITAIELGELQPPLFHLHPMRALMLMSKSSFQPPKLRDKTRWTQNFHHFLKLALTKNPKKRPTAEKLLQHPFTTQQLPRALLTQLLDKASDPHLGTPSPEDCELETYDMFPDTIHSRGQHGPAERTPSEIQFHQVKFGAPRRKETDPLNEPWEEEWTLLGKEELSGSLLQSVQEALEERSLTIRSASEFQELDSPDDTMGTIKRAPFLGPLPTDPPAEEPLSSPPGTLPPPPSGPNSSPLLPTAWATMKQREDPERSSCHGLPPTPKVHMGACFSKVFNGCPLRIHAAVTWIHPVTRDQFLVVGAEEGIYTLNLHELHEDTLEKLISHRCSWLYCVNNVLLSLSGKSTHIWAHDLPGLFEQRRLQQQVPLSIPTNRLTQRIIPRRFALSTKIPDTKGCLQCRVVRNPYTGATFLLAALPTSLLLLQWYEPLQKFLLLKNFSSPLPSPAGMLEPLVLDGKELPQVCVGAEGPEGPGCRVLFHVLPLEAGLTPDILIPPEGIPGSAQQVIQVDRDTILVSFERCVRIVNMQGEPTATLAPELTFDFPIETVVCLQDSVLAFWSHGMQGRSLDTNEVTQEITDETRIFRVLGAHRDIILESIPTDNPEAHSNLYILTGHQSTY
ASSAY METHOD TEXT: DiscoverX Kd assay
ATTRIBUTE MEASURED: Kd (nM)
Numbers only, in nM.

Which Kd is reported for this compound? CN1CCN(C(=O)c2ccc3cc(CCNc4ccnc5ccc(C#N)cc45)ccc3c2)CC1 [compound 6148] 940

====

Test system: CDK8/19-mediated NFκB-driven transcription
ASSAY METHOD TEXT: NFκB-dependent luciferase reporter assay in parental 293 reporter cells
Assay type: cell-based, human
COND: Homo sapiens, 293/NFkB-luc; read-out: IC50 (293-NFKB-Luc)
ATTRIBUTE MEASURED: pIC50
Numbers only, as −log10 of the molar value.

Below, 4 molecules whose answers are already recorded.
INSERT INTO results (smiles_text, recorded_value) VALUES
  ('N#Cc1ccc2nccc(NCCc3ccc4cc(C(=O)N5CCS(=N)(=O)CC5)ccc4c3)c2c1', 6.67),
  ('CC(C)(C)OC(=O)N1CCN(C(=O)c2ccc3cc(CCNc4ccnc5ccc(C#N)cc45)ccc3c2)CC1', 6.86),
  ('N#Cc1ccc2nccc(NCCc3ccc4cc(C(=O)N5CCSCC5)ccc4c3)c2c1', 6.97),
  ('CC(C)(C)OC(=O)NCCCN1CCN(C(=O)c2ccc3cc(CCNc4ccnc5ccc(C#N)cc45)ccc3c2)CC1', 7.07);

I have 3 molecules here; please give me pIC50 for each one.
1. CN(CCCN)C(=O)c1ccc2cc(CCNc3ccnc4ccc(C#N)cc34)ccc2c1
2. CN1CCN(C(=O)c2ccc3cc(CCNc4ccnc5ccc(C#N)cc45)ccc3c2)CC1
3. CN(CCCNC(=O)OC(C)(C)C)C(=O)c1ccc2cc(CCNc3ccnc4ccc(C#N)cc34)ccc2c1

1. 6.95
2. 7.26
3. 6.68
